measurement.type: melting point

See these solved cases before continuing.
CCCc1ccc(C2=Nc3c(N)ncnc3OC2(C)C)cc1    185 to 186 °C
CC1(C)Oc2ncnc(N)c2N=C1c1ccc([C@H]2CC[C@H](C(=O)O)CC2)cc1    > 250 °C
CC1(C)Oc2ncnc(N)c2N=C1c1ccc([C@H]2CC[C@H](CC(=O)N3CCN(CCO)CC3)CC2)cc1    225 to 226 °C
Cc1ccc(C2=Nc3c(N)ncnc3OC2(C)C)cc1    161 to 162 °C
CC1(C)Oc2ncnc(N)c2N=C1c1ccc([C@H]2CC[C@H](CN3CCC(CCO)CC3)CC2)cc1    198 to 200 °C
Cc1nc(N)c2c(n1)OC(C)(C)C(c1ccc([C@H]3CC[C@H](C(=O)Nc4nn[nH]n4)CC3)cc1)=N2    > 250 °C

Now let's try a different one.
Return reported melting point. Input compound: Nc1ncnc2c1N=C(c1ccc(Cl)cc1)CO2 > 220 °C

----------
measurement.type: melting point

See these solved cases before continuing.
Cc1nc(N)c2c(n1)OC(C)(C)C(c1ccc([C@H]3CC[C@H](CC(=O)O)CC3)c(N3CCCC3=O)c1)=N2    177 °C (dec.)
CC1(C)Oc2ncnc(N)c2N=C1c1ccc([C@H]2CC[C@H](NS(C)(=O)=O)CC2)cc1    > 250 °C
CCCc1ccc(C2=Nc3c(N)ncnc3OC2)cc1    189 to 192 °C
CC1(C)Oc2ncnc(N)c2N=C1c1ccc([C@H]2CC[C@H](CNC(=O)[C@@H]3C[C@@H](O)CN3)CC2)cc1    217 to 218 °C
Cc1nc(N)c2c(n1)OC(C)(C)C(c1ccc([C@H]3CC[C@H](CCc4nn[nH]n4)CC3)cc1)=N2    > 250 °C
Cc1ncc(CC[C@H]2CC[C@H](c3ccc(C4=Nc5c(N)ncnc5OC4(C)C)cc3)CC2)[nH]1    193 to 194 °C

Return reported melting point. Input compound: Cc1ncc(C[C@H]2CC[C@H](c3ccc(C4=Nc5c(N)ncnc5OC4(C)C)cc3)CC2)[nH]1 172 to 173 °C

Return reported melting point. Input compound: Cc1nc(N)c2c(n1)OC(C)(C)C(c1ccc([C@H]3CC[C@H](CNC(=O)C(C)(C)CO)CC3)cc1)=N2 249 to 250 °C

Return reported melting point. Input compound: Cc1nc(N)c2c(n1)OC(C)(C)C(c1ccc([C@H]3CC[C@H](CNC(=O)CO)CC3)c(Cl)c1)=N2 229 to 232 °C

Return reported melting point. Input compound: CC1(C)Oc2ncnc(N)c2N=C1c1ccc([C@H]2CC[C@H](NC(=O)CO)CC2)cc1 226 to 230 °C

Return reported melting point. Input compound: Cc1nc(N)c2c(n1)OC(C)(C)C(c1ccc([C@H]3CC[C@H](CC(=O)N4CC(O)C(O)C4)CC3)cc1)=N2 (stereo partly drawn) 210 to 211 °C

Return reported melting point. Input compound: CC1(C)Oc2ncnc(N)c2N=C1c1ccc([C@H]2CC[C@H](CSCC(=O)O)CC2)cc1 248 °C (dec.)

----------
// reported melting point for each item listed

Cc1nc(N)c2c(n1)OC(C)(C)C(c1ccc([C@H]3CC[C@H](CNC(=O)N4CCOCC4)CC3)c(Cl)c1)=N2 [Example 6-15]    225 to 228 °C
CC1(C)Oc2nc(C(F)(F)F)nc(N)c2N=C1c1ccc([C@H]2CC[C@H](CNC(=O)CO)CC2)cc1 [Example 2-154]    229 to 233 °C
CC1(C)Oc2ncnc(N)c2N=C1c1ccc([C@H]2CC[C@H](Cn3ccnc3)CC2)cc1 [Example 2-108]    202 to 203 °C

Return reported melting point. Input compound: Cc1nc(N)c2c(n1)OC(C)(C)C(c1ccc([C@H]3CC[C@H](CCC(=O)O)CC3)cc1)=N2 [Example 2-191] > 250 °C

Return reported melting point. Input compound: Cc1nc(N)c2c(n1)OC(C)(C)C(c1ccc([C@H]3CC[C@H](c4nn[nH]n4)CC3)cc1)=N2 [Example 2-263] > 250 °C

Return reported melting point. Input compound: CC1(C)Oc2ncnc(N)c2N=C1c1ccc(N2CCCCC2)cc1 191 to 193 °C
